// data source = patent US10934274B2

MEASUREMENT_TARGET: TYRO3 (Homo sapiens, UniProt Q06418)
Sequence (Q06418 41-890): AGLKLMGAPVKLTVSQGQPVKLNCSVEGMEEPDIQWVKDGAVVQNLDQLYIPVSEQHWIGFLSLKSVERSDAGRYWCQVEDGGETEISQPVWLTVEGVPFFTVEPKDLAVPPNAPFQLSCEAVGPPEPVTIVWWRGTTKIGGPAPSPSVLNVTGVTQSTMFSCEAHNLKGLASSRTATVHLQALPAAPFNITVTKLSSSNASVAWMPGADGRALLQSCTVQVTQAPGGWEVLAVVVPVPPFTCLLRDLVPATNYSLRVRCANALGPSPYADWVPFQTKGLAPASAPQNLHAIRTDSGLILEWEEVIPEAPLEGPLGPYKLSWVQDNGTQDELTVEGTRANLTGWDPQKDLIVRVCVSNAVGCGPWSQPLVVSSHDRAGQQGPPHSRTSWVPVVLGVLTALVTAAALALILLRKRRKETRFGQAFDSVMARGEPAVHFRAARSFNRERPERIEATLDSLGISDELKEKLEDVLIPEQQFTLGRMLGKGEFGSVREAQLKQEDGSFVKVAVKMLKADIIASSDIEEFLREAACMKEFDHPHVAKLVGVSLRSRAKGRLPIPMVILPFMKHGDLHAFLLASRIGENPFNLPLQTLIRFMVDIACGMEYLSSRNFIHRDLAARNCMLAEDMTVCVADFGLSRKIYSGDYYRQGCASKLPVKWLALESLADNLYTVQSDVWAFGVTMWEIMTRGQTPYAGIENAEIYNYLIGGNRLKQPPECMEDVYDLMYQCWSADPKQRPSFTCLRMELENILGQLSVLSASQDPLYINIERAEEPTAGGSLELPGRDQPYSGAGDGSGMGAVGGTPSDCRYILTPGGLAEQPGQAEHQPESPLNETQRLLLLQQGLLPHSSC
Listed here are compounds together with their documented Kd.

| COMPOUND | Kd |
| --- | --- |
| CCOc1cn(-c2cnccc2C(=O)OC)nc1C(=O)Nc1ccc(Oc2ccnc3cc(OC)c(OC)cc23)cn1 [Compound 172] | < 0.1 µM |
| CCOc1cn(-c2cnccc2CO)nc1C(=O)Nc1ccc(Oc2ccnc3cc(OC)c(OC(F)(F)F)cc23)cn1 [Compound 233] | < 0.1 µM |
| CCOc1cnn(-c2ccc(C#N)nc2)c1C(=O)Nc1ccc(Oc2ccnc3cc(OC)c(OC)cc23)cn1 [Compound 53] | ≥ 1 µM |
| CCOc1cn(-c2nccnc2F)nc1C(=O)Nc1ccc(Oc2ccnc3cc(OC)c(OC)cc23)cn1 [Compound 178] | < 0.1 µM |
| CCOc1cn(-c2cccnn2)nc1C(=O)Nc1ccc(Oc2ccnc3cc(OC)c(OC)cc23)cn1 [Compound 5] | < 0.1 µM |
| COc1cc2c(Oc3ccc(NC(=O)c4c(OCC(F)(F)F)cnn4-c4cnc(N)nc4)nc3)ccnc2cc1OC(C)C [Compound 256] | ≥ 1 µM |
| COc1cc2nccc(Oc3ccc(NC(=O)c4nn(-c5ccc(F)cc5C)cc4OCC(F)(F)F)nc3)c2cc1OC [Compound 203] | < 0.1 µM |
| CCOc1cnn(-c2ccoc2)c1C(=O)Nc1ccc(Oc2ccnc3cc(OC)c(OC)cc23)cn1 [Compound 25] | ≥ 1 µM |
| CCOc1cn(-c2cnccc2CO)nc1C(=O)Nc1ccc(Oc2ccnc3cc(OC(C)C)c(OC)cc23)cc1F [Compound 231] | < 0.1 µM |
| CCOc1cn(C2CCN(C)C2)nc1C(=O)Nc1ccc(Oc2ccnc3cc(OC)c(OC)cc23)cc1F (stereo not drawn) [Compound 212] | 0.1 to 1 µM |
| CCOc1cn(-c2ncc(Cl)cc2CN)nc1C(=O)Nc1ccc(Oc2ccnc3cc(OC)c(OC)cc23)cn1 [Compound 134] | ≥ 1 µM |
| COc1cc2nccc(Oc3ccc(NC(=O)c4nn(-c5ccc(F)cc5C)cc4OCC4CC4)nc3)c2cc1OC [Compound 258] | < 0.1 µM |
| CCOc1cnn(CCOC(F)F)c1C(=O)Nc1ccc(Oc2ccnc3cc(OC)c(OC)cc23)cn1 [Compound 78] | ≥ 1 µM |
| CCOc1cn(-c2ccc(OC(F)(F)F)cc2Cl)nc1C(=O)Nc1ccc(Oc2ccnc3cc(OC)c(OC)cc23)c(F)c1 [Compound 189] | < 0.1 µM |
| CCOc1cnn(-c2ccc(Cl)c(CN(C)C)c2)c1C(=O)Nc1ccc(Oc2ccnc3cc(OC)c(OC)cc23)cn1 [Compound 130] | 0.1 to 1 µM |

----------
System: Met (Homo sapiens) | Read-out: Kd
Sequence (P08581 25-1390): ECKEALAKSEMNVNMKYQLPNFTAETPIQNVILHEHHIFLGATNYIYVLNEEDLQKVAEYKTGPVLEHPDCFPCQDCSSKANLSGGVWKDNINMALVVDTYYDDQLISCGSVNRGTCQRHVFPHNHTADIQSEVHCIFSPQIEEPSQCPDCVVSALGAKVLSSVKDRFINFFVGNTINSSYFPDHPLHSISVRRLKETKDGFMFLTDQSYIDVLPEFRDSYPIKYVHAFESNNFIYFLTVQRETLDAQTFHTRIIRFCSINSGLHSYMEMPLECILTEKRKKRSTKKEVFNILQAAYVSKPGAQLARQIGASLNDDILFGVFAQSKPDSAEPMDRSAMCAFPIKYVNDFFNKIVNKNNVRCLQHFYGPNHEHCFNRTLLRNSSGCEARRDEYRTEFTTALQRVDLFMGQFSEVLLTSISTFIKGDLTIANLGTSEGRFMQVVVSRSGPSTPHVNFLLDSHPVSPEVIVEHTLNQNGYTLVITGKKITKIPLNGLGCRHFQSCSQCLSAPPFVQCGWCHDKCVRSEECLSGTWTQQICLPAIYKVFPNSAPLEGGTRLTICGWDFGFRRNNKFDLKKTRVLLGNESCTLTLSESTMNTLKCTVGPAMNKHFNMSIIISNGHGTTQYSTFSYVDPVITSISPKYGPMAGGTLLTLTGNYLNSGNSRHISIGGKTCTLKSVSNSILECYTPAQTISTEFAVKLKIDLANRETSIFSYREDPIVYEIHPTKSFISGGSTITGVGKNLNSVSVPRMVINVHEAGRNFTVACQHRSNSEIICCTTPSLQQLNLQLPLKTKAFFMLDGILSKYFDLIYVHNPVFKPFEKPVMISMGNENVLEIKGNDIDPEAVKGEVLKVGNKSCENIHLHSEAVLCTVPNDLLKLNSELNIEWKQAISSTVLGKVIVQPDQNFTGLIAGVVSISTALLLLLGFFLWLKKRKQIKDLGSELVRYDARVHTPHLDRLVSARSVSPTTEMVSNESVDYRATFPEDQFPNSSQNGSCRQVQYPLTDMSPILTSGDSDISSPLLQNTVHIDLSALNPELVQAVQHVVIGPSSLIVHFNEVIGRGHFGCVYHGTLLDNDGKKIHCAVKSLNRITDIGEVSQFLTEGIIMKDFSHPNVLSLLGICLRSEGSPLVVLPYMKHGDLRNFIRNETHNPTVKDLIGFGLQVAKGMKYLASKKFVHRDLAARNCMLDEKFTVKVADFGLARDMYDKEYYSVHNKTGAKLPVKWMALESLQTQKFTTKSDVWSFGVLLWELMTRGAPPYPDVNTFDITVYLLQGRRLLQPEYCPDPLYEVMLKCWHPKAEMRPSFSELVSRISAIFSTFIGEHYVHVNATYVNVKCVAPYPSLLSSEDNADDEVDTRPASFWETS

| COMPOUND | Kd |
| --- | --- |
| CCOc1cn(-c2cnccc2CCO)nc1C(=O)Nc1ccc(Oc2ccnc3cc(OC)c(OC)cc23)cn1 [Compound 181] | < 100 nM |
| COc1cc2nccc(Oc3ccc(NC(=O)c4nn(-c5ccc(F)cc5C)cc4OCC(F)(F)F)nc3)c2cc1OC [Compound 203] | < 100 nM |
| CCOc1cn(-c2ccc(OC(F)(F)F)cc2Cl)nc1C(=O)Nc1ccc(Oc2ccnc3cc(OC)c(OC)cc23)cc1F [Compound 192] | < 100 nM |
| CCOc1cn(-c2cnccc2Cl)nc1C(=O)Nc1ccc(Oc2ccnc3cc(OC)c(OC)cc23)c(F)c1 [Compound 193] | < 100 nM |
| CCOc1cn(-c2ccc(OC(F)(F)F)cc2Cl)nc1C(=O)Nc1ccc(Oc2ccnc3cc(OC)c(OC(F)(F)F)cc23)cn1 [Compound 201] | 100 to 1000 nM |
| CCOc1cn(-c2ccc(F)cc2C)nc1C(=O)Nc1csc(Oc2ccnc3cc(OC)c(OC)cc23)n1 [Compound 122] | ≥ 1000 nM |
| CCOc1cn(-c2nccnc2Cl)nc1C(=O)Nc1ccc(Oc2ccnc3cc(OC)c(OC)cc23)cc1F [Compound 190] | < 100 nM |
| CCOc1cn(-c2cccnc2Cl)nc1C(=O)Nc1ccc(Oc2ccnc3cc(OC)c(OC)cc23)cn1 [Compound 19] | < 100 nM |
| CCOc1cn(-c2nc[nH]n2)nc1C(=O)Nc1ccc(Oc2ccnc3cc(OC)c(OC)cc23)cn1 [Compound 168] | < 100 nM |
| CCOc1cn(-c2ccnnc2)nc1C(=O)Nc1ccc(Oc2ccnc3cc(OC)c(OC)cc23)cn1 [Compound 40] | < 100 nM |
| CCOc1cn(-c2cnccc2CO)nc1C(=O)Nc1ccc(Oc2ccnc3cc(OC)c(OC)cc23)cn1 [Compound 179] | < 100 nM |
| CCOc1cn(-c2cccnc2)nc1C(=O)Nc1ccc(Oc2ccnc3cc(OC)c(OC(F)(F)F)cc23)cn1 [Compound 199] | ≥ 1000 nM |
| CCOc1nn(-c2cccnc2)cc1C(=O)Nc1ccc(Oc2ccnc3cc(OC)c(OC)cc23)cn1 [Compound 46] | ≥ 1000 nM |
| CCOc1sc(-c2cccnc2)nc1C(=O)Nc1ccc(Oc2ccnc3cc(OC)c(OC)cc23)cn1 [Compound 45] | < 100 nM |
| CCOc1cn(CC2CCO2)nc1C(=O)Nc1ccc(Oc2ccnc3cc(OC)c(OC)cc23)cn1 (centres unmarked) [Compound 48] | 100 to 1000 nM |
| CCOc1cnn(CCOC(F)F)c1C(=O)Nc1ccc(Oc2ccnc3cc(OC)c(OC)cc23)cn1 [Compound 78] | 100 to 1000 nM |
| COc1cc2nccc(Oc3ccc(NC(=O)c4nn(-c5ccc(F)cc5C)cc4OCC4CC4)nc3)c2cc1OC [Compound 258] | < 100 nM |
| CCOc1cn(-c2cccnc2)nc1C(=O)Nc1ccc(Oc2ccnc3cc(OC)c(OC)cc23)cc1F [Compound 85] | < 100 nM |
| CCOc1c(C(=O)Nc2ccc(Oc3ccnc4cc(OC)c(OC)cc34)cn2)nn(-c2cccnc2)c1C [Compound 156] | < 100 nM |
| CCOc1cn(-c2ccc(Cl)cc2Cl)nc1C(=O)Nc1ccc(Oc2ccnc3cc(OC)c(OC)cc23)cn1 [Compound 108] | ≥ 1000 nM |
| CCOc1cn(C2CCN(C)C2)nc1C(=O)Nc1ccc(Oc2ccnc3cc(OC)c(OC)cc23)cc1F (centres unmarked) [Compound 212] | 100 to 1000 nM |
| CCOc1cn(-c2ccccn2)nc1C(=O)Nc1ccc(Oc2ccnc3cc(OC)c(OC)cc23)cn1 [Compound 4] | < 100 nM |
| COc1cc2c(Oc3ccc(NC(=O)c4nn(-c5cnc(N)nc5)cc4OCC(F)(F)F)c(F)c3)ccnc2cc1OC(C)C [Compound 243] | < 100 nM |

----------
MEASUREMENT_TARGET: Axl (Homo sapiens, UniProt P30530)
Sequence (P30530 26-894): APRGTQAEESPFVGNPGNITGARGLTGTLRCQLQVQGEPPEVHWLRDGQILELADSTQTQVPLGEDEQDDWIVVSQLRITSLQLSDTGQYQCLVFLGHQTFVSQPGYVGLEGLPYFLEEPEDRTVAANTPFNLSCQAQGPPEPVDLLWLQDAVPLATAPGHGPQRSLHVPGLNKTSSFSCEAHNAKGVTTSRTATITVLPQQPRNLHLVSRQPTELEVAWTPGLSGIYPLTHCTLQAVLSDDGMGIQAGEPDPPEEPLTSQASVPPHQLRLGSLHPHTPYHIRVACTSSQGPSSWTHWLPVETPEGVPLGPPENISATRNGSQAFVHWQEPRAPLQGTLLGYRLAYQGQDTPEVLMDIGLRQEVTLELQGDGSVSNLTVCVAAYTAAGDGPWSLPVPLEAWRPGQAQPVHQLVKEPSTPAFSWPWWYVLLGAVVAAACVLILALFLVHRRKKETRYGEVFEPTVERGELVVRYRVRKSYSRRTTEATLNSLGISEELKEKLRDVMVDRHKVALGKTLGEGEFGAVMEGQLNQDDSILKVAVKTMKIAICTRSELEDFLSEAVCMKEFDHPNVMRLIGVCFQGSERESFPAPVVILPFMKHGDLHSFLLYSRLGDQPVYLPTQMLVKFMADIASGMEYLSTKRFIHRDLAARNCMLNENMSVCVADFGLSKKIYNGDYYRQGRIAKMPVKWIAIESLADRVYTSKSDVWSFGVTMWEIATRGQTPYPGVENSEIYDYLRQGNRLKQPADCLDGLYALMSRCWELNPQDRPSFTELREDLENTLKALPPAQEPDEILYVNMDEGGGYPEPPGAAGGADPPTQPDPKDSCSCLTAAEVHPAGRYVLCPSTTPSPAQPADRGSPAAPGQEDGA
pKd: −log10 of the molar value.
ENDPOINT: pKd

| SMILES | ENDPOINT | VALUE |
| --- | --- | --- |
| CCOc1nn(-c2ccc(F)cc2C)cc1C(=O)Nc1ccc(Oc2ccnc3cc(OC)c(OC)cc23)c(F)c1 | pKd | ≤ 6.00 |
| CCOc1cn(Cc2cccnc2)nc1C(=O)Nc1ccc(Oc2ccnc3cc(OC)c(OC)cc23)cn1 | pKd | > 7.00 |
| CCOc1cn(-c2ccc(F)cc2C)nc1C(=O)Nc1cnc(Oc2ccnc3cc(OC)c(OC)cc23)cn1 | pKd | ≤ 6.00 |
| CCOc1cn(-c2nccnc2C(C)(C)O)nc1C(=O)Nc1ccc(Oc2ccnc3cc(OC)c(OC)cc23)cn1 | pKd | > 7.00 |
| COc1cc2nccc(Oc3ccc(NC(=O)c4nn(-c5ccc(F)cc5C(C)=O)cc4OCC4CC4)nc3)c2cc1OC | pKd | > 7.00 |
| CCOc1cn(-c2cnc(CO)nc2)nc1C(=O)Nc1ccc(Oc2ccnc3cc(OC)c(OC)cc23)cn1 | pKd | > 7.00 |
| CCOc1cn(-c2cccnc2)nc1C(=O)Nc1ncc(Oc2ccnc3cc(OC)c(OC)cc23)cc1F | pKd | > 7.00 |
